Target: p110γ (Homo sapiens, UniProt P48736)
Sequence (P48736 whole entry): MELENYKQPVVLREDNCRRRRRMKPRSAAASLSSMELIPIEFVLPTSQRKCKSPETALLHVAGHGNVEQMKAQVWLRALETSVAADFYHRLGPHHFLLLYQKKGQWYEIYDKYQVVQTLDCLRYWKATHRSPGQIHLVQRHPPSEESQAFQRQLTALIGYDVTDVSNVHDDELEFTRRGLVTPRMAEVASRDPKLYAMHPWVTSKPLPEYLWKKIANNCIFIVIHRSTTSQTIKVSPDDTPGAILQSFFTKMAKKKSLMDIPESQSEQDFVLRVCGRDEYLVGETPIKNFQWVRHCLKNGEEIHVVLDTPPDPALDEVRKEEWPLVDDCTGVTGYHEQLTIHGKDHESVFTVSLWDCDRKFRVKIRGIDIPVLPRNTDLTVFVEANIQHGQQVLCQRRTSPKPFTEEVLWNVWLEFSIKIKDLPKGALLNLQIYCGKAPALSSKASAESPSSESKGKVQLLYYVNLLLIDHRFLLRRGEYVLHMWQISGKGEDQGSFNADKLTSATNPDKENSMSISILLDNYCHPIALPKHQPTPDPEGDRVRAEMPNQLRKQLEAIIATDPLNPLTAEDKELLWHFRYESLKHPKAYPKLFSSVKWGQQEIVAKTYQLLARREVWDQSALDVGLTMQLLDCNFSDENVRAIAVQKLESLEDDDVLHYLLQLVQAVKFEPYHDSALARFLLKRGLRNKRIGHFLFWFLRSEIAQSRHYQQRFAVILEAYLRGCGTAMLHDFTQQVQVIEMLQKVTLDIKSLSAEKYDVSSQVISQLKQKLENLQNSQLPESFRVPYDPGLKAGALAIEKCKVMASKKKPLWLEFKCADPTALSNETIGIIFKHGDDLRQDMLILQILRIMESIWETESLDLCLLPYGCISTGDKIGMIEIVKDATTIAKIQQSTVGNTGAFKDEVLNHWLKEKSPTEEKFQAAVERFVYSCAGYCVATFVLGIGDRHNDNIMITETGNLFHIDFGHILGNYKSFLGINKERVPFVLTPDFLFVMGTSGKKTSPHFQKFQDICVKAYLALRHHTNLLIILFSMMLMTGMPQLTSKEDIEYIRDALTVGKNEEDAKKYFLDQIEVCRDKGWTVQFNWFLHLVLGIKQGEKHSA
Experiment: Transcreener KINASE Assay, kinase inhibition of p110γ
Format: biochemical
Conditions: 1 uM test compound
READOUT NAME: PI3Kγ IH % @ 1 uM (%)

These solved cases illustrate the format of a correct answer.
| MOLECULE | MEASUREMENT TARGET | PI3Kγ IH % @ 1 uM / % |
| --- | --- | --- |
| Cc1nc(N)nc(N2CC[C@H]2c2nn3ccc(Cl)c3c(=O)n2-c2cccc(F)c2)c1C#N | p110γ (Homo sapiens, UniProt P48736) | 97.7 |
| Cc1nc(N)nc(N2C[C@H](C)C2c2nn3ccc(Cl)c3c(=O)n2-c2ccccc2)c1C#N (stereo partly drawn) | p110γ (Homo sapiens, UniProt P48736) | 91.3 |
| CC(=O)c1cnc(N)nc1N1CC[C@H]1c1nn2c(C)cc(Cl)c2c(=O)n1-c1ccccc1 | p110γ (Homo sapiens, UniProt P48736) | 63.0 |
| CC(C)Cn1c([C@@H]2CCCN2c2ncnc3[nH]cc(C#N)c23)nn2ccc(Cl)c2c1=O | p110γ (Homo sapiens, UniProt P48736) | 89.9 |
| Nc1ncnc(N2CCC[C@H]2c2nn3ccc(Cl)c3c(=O)n2-c2ccccc2)c1Cl | p110γ (Homo sapiens, UniProt P48736) | 92.7 |
| Nc1ncc(C(F)(F)F)c(N2CCC[C@H]2c2nn3ccc(Cl)c3c(=O)n2-c2ccccc2)n1 | p110γ (Homo sapiens, UniProt P48736) | 89.3 |
| CS(=O)(=O)c1cccc(-n2c([C@@H]3CCCN3c3ncnc4[nH]cnc34)nn3ccc(Cl)c3c2=O)c1 | p110γ (Homo sapiens, UniProt P48736) | 93.7 |
| CC(=O)c1n[nH]c2ncnc(N3CC[C@H]3c3nn4ccc(Cl)c4c(=O)n3-c3ccccc3)c12 | p110γ (Homo sapiens, UniProt P48736) | 70.2 |

[I] O=c1c2c(Cl)ccn2nc([C@@H]2CC(F)(F)CN2c2ncnc3[nH]cnc23)n1Cc1ncccn1
[II] CC(Nc1ncnc2[nH]cnc12)c1cn2ccc(-c3cnn(C)c3)c2c(=O)n1-c1ccccc1 (stereo not drawn)
[III] CC1(C)CN(c2nc(N)ncc2Cl)C1c1nn2ccc(Cl)c2c(=O)n1-c1ccccc1 (stereo not drawn)
Exam item: Endpoint returns the given molecules ordered by ascending PI3Kγ IH % @ 1 uM. Please respond by ranking the labels in the order requested.
Marked response: I, II, III
(I: −8.4%, II: 53.7%, III: 93.9%)

====

Molecular target: p110δ/p85α (Homo sapiens, UniProt O00329)
Sequence (O00329 whole entry): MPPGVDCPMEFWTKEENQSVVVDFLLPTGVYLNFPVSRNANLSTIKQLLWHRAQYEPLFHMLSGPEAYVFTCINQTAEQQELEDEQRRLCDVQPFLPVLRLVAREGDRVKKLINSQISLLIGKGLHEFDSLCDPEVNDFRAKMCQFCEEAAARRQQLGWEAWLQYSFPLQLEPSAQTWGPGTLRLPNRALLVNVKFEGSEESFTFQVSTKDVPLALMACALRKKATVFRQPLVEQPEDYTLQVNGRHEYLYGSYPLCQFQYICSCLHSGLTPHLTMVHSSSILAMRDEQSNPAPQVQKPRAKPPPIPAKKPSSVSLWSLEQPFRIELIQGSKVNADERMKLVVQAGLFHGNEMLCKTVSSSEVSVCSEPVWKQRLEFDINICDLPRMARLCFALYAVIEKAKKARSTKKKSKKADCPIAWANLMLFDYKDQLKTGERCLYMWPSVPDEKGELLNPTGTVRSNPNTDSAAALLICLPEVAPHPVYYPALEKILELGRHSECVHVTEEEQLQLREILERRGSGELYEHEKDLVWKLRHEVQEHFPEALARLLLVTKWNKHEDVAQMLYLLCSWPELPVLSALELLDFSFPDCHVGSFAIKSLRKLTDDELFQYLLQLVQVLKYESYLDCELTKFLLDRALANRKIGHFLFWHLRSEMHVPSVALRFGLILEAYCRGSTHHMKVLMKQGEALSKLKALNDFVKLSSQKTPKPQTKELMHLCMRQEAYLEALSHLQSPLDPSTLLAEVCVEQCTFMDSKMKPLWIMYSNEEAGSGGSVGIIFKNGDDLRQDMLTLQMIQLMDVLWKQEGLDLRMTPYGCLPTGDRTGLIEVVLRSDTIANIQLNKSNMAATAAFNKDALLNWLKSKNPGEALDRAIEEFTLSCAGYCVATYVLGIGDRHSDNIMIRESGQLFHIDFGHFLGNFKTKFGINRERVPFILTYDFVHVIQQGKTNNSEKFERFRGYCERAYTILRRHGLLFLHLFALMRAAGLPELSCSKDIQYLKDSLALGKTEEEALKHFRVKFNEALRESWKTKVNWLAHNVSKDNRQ
Sequence (P27986 whole entry partner): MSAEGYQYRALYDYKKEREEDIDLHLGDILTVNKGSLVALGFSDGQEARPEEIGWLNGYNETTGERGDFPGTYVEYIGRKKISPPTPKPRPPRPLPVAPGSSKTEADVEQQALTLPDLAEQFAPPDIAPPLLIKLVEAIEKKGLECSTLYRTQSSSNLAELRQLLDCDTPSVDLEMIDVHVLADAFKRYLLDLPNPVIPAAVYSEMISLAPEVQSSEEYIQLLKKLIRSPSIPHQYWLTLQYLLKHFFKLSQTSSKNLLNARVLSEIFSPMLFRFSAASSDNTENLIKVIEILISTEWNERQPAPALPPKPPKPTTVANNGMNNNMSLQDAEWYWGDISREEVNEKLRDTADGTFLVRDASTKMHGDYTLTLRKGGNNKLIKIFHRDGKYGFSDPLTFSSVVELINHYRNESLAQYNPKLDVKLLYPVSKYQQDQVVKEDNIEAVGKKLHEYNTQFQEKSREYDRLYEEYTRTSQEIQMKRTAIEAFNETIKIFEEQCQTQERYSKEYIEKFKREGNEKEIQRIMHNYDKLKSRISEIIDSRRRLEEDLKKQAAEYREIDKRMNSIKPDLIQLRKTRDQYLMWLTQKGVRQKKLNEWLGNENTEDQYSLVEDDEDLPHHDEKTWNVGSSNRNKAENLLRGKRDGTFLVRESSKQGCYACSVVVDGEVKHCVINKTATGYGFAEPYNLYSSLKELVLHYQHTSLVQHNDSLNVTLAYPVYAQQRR
Assay: Transcreener KINASE Assay, kinase inhibition of p110δ/p85α
Details: read-out: PI3Kδ IC50
READOUT NAME: IC50 (nM)

| COMPOUND | IC50 / nM |
| --- | --- |
| CC(Nc1ncnc2[nH]cc(C#N)c12)c1cc2ccc(Cl)n2c(=O)n1-c1ccccc1 (stereo not shown) | 2 |
| C[C@@H](Nc1nc(N)ncc1C#N)c1cc2ncc(Cl)n2c(=O)n1-c1ccccc1 | 240 |
| O=c1c2c(Cl)ccn2nc([C@@H]2CC(F)(F)CN2c2ncnc3[nH]cnc23)n1-c1ccccc1 | 13 |

[A] C[C@H]1CN(c2nc(N)ncc2C#N)C1c1nn2ccc(Cl)c2c(=O)n1-c1ccccc1 (stereo partly shown)
[B] Cc1ccn2nc([C@@H]3CCCN3c3ncnc(N)c3C#N)n(-c3ccccc3)c(=O)c12
Exam item: Param metric = IC50; output whichever of A , B has the minimum value. Response format: the label of the selected entry.
Marked response: B

[A] O=c1c2c(Cl)ccn2nc([C@@H]2C[C@H](F)CN2c2ncnc3[nH]cnc23)n1-c1ccccc1
[B] CC(Nc1ncnc2[nH]cnc12)c1cc2ncc(Cl)n2c(=O)n1-c1ccccc1 (stereo not shown)
Exam item: Between A and B , whose recorded IC50 is greater? Response format: the label of the selected entry.
Marked response: A
(A: 3 nM, B: 2 nM)

Values were extracted from patent US20150307520A1.
